Target: NR2F6 (Homo sapiens)
Construct: expressed in transfected cells; also transient transfection
Experiment: NR2F6 agonist screening, Firefly signal cmpd/DMSO
Format: cell-based
Conditions: F4; 1% FBS; 0.5 uM
Result type: Firefly, F4, 1% FBS, cmpd/DMSO (mean)
Output spec: single numeric token, no unit.

Asked: Looking for the measured Firefly, F4, 1% FBS, cmpd/DMSO (mean) of O=S1(=O)C[C@H](NCCc2cccs2)[C@@H](S(=O)(=O)c2ccc(Cl)cc2)C1 , can you help?
Given back: 1.2

Asked: Tell me the measured Firefly, F4, 1% FBS, cmpd/DMSO (mean) of O=S1(=O)C[C@H](NCc2ccco2)[C@@H](S(=O)(=O)c2cccs2)C1 , please.
Given back: 1.2

Asked: Recorded Firefly, F4, 1% FBS, cmpd/DMSO (mean) for COCCN[C@H]1CS(=O)(=O)C[C@@H]1S(=O)(=O)c1cccs1 , please?
Given back: 1.5

* * *

Molecular target: NR2F6 (Homo sapiens, UniProt P10588)
Construct: expressed in transfected cells; also transient transfection
Assay: NR2F6 agonist screening, Firefly signal cmpd/DMSO
Format: cell-based
Conditions: 40 uM; F4
Measured Firefly F4, cmpd/DMSO (mean), listed per entry for reference.

[
  {
    "Compound": "O=S1(=O)C[C@H](NCc2ccncc2)[C@@H](S(=O)(=O)c2cccs2)C1",
    "Measured target": "NR2F6 (Homo sapiens, UniProt P10588)",
    "Measured result": 1.9
  },
  {
    "Compound": "CCC(C)N[C@H]1CS(=O)(=O)C[C@@H]1S(=O)(=O)c1ccc(Cl)cc1 (some centres unmarked)",
    "Measured target": "NR2F6 (Homo sapiens, UniProt P10588)",
    "Measured result": 1.9
  },
  {
    "Compound": "CCC(C)N[C@H]1CS(=O)(=O)C[C@@H]1S(=O)(=O)c1ccc(C)cc1 (some centres unmarked)",
    "Measured target": "NR2F6 (Homo sapiens, UniProt P10588)",
    "Measured result": 3.3
  },
  {
    "Compound": "CC(=O)Nc1ccc(S(=O)(=O)[C@H]2CS(=O)(=O)C[C@@H]2NC2CC2)cc1",
    "Measured target": "NR2F6 (Homo sapiens, UniProt P10588)",
    "Measured result": 1.3
  },
  {
    "Compound": "CC(C)CN[C@H]1CS(=O)(=O)C[C@@H]1S(=O)(=O)c1ccc(Cl)cc1",
    "Measured target": "NR2F6 (Homo sapiens, UniProt P10588)",
    "Measured result": 2.2
  }
]

Asked: Can you look up the measured Firefly F4, cmpd/DMSO (mean) of O=S1(=O)C[C@H](N2CCCCC2)[C@@H](S(=O)(=O)c2cccs2)C1 for me?
Given back: 0.9

Asked: Find the recorded Firefly F4, cmpd/DMSO (mean) belonging to CC(C)CCN[C@H]1CS(=O)(=O)C[C@@H]1S(=O)(=O)c1cccs1 and report it.
Given back: 1.4

Asked: Please give the measured Firefly F4, cmpd/DMSO (mean) for this compound: COc1ccc(CCN[C@H]2CS(=O)(=O)C[C@@H]2S(=O)(=O)c2ccc(Cl)cc2)cc1OC
Given back: 3.4

* * *

Test: PK in rat plasma
Type: in vivo
Conditions: rat; Table 36; PO plasma, 7.53 mg/kg
Result type: CL/F (mL/min/kg)
Just the number please, in mL/min/kg, no unit attached.

Asked: Look up CL/F for this compound: COCCN[C@H]1CS(=O)(=O)C[C@@H]1S(=O)(=O)c1ccc(Cl)cc1
Given back: 866

* * *

Target: NR2F6 LBD (Homo sapiens)
Construct: expressed in transfected cells
Assay: NR2F6 LBD transient transfection
Format: cell-based
Conditions: 10 uM; LBD
Result type: Firefly LBD, cmpd/DMSO (mean)

Example results:
[
  {
    "Compound structure": "C[C@@H]1C[C@H](C)CN([C@H]2CS(=O)(=O)C[C@@H]2S(=O)(=O)c2cccs2)C1",
    "Measured result": 3.2
  },
  {
    "Compound structure": "O=S1(=O)C[C@H](N2CCCCC2)[C@@H](S(=O)(=O)c2cccs2)C1",
    "Measured result": 3.8
  },
  {
    "Compound structure": "CC(C)CCN[C@H]1CS(=O)(=O)C[C@@H]1S(=O)(=O)c1ccc(Cl)cc1",
    "Measured result": 3.6
  }
]

Shift focus to the following entry.
Asked: Can you share its Firefly LBD, cmpd/DMSO (mean)? I mean this compound: Cc1cccc(CN[C@H]2CS(=O)(=O)C[C@@H]2S(=O)(=O)c2ccc(Cl)cc2)c1
Given back: 2.3

* * *

Biological target: NR2F6 (Homo sapiens, UniProt P10588)
Construct: expressed in transfected cells; also transient transfection
Sequence (P10588 1-404): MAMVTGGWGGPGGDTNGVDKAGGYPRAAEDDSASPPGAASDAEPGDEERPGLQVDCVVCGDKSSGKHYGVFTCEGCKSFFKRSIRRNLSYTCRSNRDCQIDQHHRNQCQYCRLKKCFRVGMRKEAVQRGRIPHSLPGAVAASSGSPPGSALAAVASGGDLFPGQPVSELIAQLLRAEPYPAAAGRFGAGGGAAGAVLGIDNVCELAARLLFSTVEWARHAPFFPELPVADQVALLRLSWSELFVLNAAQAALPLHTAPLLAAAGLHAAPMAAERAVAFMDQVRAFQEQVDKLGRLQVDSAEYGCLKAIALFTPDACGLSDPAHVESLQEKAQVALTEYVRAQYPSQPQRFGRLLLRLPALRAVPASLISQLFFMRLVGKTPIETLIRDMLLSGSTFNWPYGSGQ
Assay: NR2F6 agonist screening, Firefly signal cmpd/DMSO
Format: cell-based
Conditions: F4; 1% FBS; 40 uM
Classification scheme (Firefly, F4, 1% FBS, cmpd/DMSO (mean)): bin A: < 0.6; bin B: ≥ 0.6 and < 2; bin C: ≥ 2

Field: example entries. Status: answers known.
[
  {
    "Molecule": "O=S1(=O)C[C@H](NC2CCCCC2)[C@@H](S(=O)(=O)c2ccc(Cl)cc2)C1",
    "Label value": "bin A"
  },
  {
    "Molecule": "O=S1(=O)C[C@H](N2CCCC2)[C@@H](S(=O)(=O)c2ccc(Cl)cc2)C1",
    "Label value": "bin A"
  },
  {
    "Molecule": "C[C@@H]1C[C@H](C)CN([C@H]2CS(=O)(=O)C[C@@H]2S(=O)(=O)c2ccccc2)C1",
    "Label value": "bin C"
  },
  {
    "Molecule": "O=S1(=O)C[C@H](NCc2ccco2)[C@@H](S(=O)(=O)c2cccs2)C1",
    "Label value": "bin C"
  },
  {
    "Molecule": "CC(=O)N1CCN([C@H]2CS(=O)(=O)C[C@@H]2S(=O)(=O)c2ccc(F)c(C)c2)CC1",
    "Label value": "bin B"
  },
  {
    "Molecule": "Cc1cc(S(=O)(=O)[C@H]2CS(=O)(=O)C[C@@H]2NCC2CCCO2)ccc1F (stereo partly shown)",
    "Label value": "bin B"
  },
  {
    "Molecule": "O=S1(=O)C[C@H](N2CCCCC2)[C@@H](S(=O)(=O)c2ccc(Cl)cc2)C1",
    "Label value": "bin A"
  },
  {
    "Molecule": "COc1ccc(CCN[C@H]2CS(=O)(=O)C[C@@H]2S(=O)(=O)c2ccc(Cl)cc2)cc1OC",
    "Label value": "bin B"
  }
]

Asked: Which band does COCCN[C@H]1CS(=O)(=O)C[C@@H]1S(=O)(=O)c1ccc(Cl)cc1 fall in?
Given back: bin C

* * *

List of Firefly ERalpha transient, cmpd/DMSO (mean) values.
Target: ERα (Homo sapiens, UniProt P03372)
Construct: expressed in transfected cells
Sequence (P03372 whole entry, species assumed): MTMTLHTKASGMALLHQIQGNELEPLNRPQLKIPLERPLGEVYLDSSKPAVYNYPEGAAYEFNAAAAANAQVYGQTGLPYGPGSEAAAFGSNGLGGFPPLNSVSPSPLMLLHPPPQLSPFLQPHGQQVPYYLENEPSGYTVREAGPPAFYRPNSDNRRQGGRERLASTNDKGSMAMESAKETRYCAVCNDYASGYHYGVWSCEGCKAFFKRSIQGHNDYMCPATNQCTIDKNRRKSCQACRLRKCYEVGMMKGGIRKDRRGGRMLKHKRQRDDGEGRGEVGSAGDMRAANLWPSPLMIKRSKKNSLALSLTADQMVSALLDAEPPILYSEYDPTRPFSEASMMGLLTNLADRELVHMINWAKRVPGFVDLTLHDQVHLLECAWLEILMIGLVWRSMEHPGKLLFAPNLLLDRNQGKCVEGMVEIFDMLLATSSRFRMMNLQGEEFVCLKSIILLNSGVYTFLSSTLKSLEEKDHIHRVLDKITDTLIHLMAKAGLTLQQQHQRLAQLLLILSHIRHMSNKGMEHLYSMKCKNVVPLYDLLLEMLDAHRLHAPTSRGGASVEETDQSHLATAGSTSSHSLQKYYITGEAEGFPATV
Experiment: Counterscreening, Firefly signal with ERα transient transfection (Firefly_ERa)
Assay type: cell-based
Settings: Table 15; 10 uM

[
  {
    "Molecule": "COc1cccc(-c2noc(Cn3ncc4ccccc4c3=O)n2)c1",
    "Measured result": 2.2
  },
  {
    "Molecule": "CCOC(=O)c1cnc2c(C)cc(C)cc2c1N1CCC(C)CC1",
    "Measured result": 1.9
  },
  {
    "Molecule": "CCOC(=O)c1cnc2c(C)cc(C)cc2c1NCCCN1CCCCC1 [Compound Z11]",
    "Measured result": 1.6
  },
  {
    "Molecule": "CCOC(=O)c1cnc2c(C)cc(C)cc2c1NCCCN1CCCCC1 [Compound Z12]",
    "Measured result": 1.3
  },
  {
    "Molecule": "CCOC(=O)c1cnc2c(C)cc(C)cc2c1NCc1ccc(Cl)cc1",
    "Measured result": 1.9
  }
]

Asked: Entry under review: CC(=O)Nc1ccc(Br)c2nonc12 . Reported Firefly ERalpha transient, cmpd/DMSO (mean)?
Given back: 1.2

Asked: Return reported Firefly ERalpha transient, cmpd/DMSO (mean); argument: CCOC(=O)c1cnc2c(C)cc(C)cc2c1NCCCN1CCCCC1 [Compound Z8]
Given back: 2.4

Asked: State the recorded Firefly ERalpha transient, cmpd/DMSO (mean) for this entry: CCOC(=O)c1cnc2c(C)cc(C)cc2c1NCCCN1CCCC1
Given back: 9.1

Asked: What measured Firefly ERalpha transient, cmpd/DMSO (mean) goes with Cc1ccc(NC(=O)c2noc3c2CC(C)(C)CC3)cc1C ?
Given back: 2.2

Asked: Reported Firefly ERalpha transient, cmpd/DMSO (mean) for CCOC(=O)c1cnc2c(C)cc(C)cc2c1NCCCN1CCCCC1 [Compound Z10] : what is it?
Given back: 1.5
